# assay.target: Adenosine receptor A3 (Homo sapiens, UniProt P0DMS8)
# test.summary: biochemical
# Description: Displacement of [3H]MRE3008-F20 from human adenosine A3 receptor expressed in CHO cells; range 0.17-0.24
parameter: Ki
Phrase the answer as number then unit, nothing more needed.

**Q:** Recall the reported Ki of COc1ccc(NC(=O)Nc2nc3nn(C)cc3c3nc(-c4ccco4)nn23)cc1 when tested on Adenosine receptor A3 (Homo sapiens, UniProt P0DMS8).
**A:** 0.2 nM

###

# assay.target: UniProt P0DMS8
# test.summary: biochemical
parameter: pKi
The meaning of pKi here: minus log10 of the concentration in molar units.

**Q:** Give the observed pKi of Cn1cc2c(nc(NC(=O)Nc3cccc(Cl)c3)n3nc(-c4ccco4)nc23)n1 for UniProt P0DMS8.
**A:** 9.40

###

# assay.target: UniProtKB P0DMS8
# Sequence (P0DMS8 whole entry): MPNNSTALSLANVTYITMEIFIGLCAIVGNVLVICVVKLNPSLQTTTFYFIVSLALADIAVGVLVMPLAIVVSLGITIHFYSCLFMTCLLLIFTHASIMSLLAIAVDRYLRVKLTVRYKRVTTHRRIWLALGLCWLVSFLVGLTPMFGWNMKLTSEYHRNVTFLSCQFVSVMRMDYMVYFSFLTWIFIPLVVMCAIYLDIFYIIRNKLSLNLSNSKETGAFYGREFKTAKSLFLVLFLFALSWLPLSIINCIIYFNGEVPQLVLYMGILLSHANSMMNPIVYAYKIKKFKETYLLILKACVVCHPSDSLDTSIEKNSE
# test.summary: biochemical
parameter: Ki (nM)
Give just the numeric value; nM need not be written.

**Q:** Output measured Ki for this item: COc1ccc(NC(=O)Nc2nc3nn(CC=C(C)C)cc3c3nc(-c4ccco4)nn23)cc1
**A:** 40

###

# assay.target: Adenosine receptor A3 (Homo sapiens)
# test.summary: biochemical
parameter: pKi
Worth noting: pKi values are minus log10 of concentrations stated in mol/L.

**Q:** Note down pKi recorded for Cn1cc2c(nc(N)n3nc(-c4ccco4)nc23)n1
**A:** 6.52

###

# assay.target: Adenosine receptor A3 (Homo sapiens)
# Sequence (P0DMS8 whole entry): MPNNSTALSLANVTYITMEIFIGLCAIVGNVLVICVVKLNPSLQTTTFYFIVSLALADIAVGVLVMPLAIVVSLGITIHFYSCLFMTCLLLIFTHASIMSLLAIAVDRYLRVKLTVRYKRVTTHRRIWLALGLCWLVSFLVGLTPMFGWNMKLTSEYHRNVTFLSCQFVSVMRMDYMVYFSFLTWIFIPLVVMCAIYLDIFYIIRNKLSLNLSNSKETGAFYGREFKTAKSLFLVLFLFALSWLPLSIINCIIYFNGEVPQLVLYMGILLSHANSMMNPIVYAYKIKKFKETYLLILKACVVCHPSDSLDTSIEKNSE
# test.summary: Displacement of [3H]MRE3008-F20 from human adenosine A3 receptor expressed in CHO cells; range 0.27-0.34
# Assay type: cell-based
parameter: Ki (pM)
Hi! Could you send only the number? It should be in pM, unit omitted.

**Q:** Check Adenosine receptor A3 (Homo sapiens) data and give Ki for CCCCn1cc2c(nc(NC(=O)Nc3ccc(OC)cc3)n3nc(-c4ccco4)nc23)n1 .
**A:** 320

###

# assay.target: Adenosine receptor A2b (Homo sapiens, UniProt P29275)
# Sequence (P29275 whole entry): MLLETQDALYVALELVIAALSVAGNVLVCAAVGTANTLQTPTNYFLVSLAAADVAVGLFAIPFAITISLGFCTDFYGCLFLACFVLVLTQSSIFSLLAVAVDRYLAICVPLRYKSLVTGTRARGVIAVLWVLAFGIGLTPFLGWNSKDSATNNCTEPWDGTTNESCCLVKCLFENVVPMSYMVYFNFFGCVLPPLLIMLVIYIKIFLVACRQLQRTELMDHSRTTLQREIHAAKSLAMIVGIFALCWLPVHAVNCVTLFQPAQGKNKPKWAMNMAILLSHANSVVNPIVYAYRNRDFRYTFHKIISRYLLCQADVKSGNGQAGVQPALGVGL
# test.summary: Displacement of [3H]DPCPX from Adenosine A2b receptor expressed in […]; range 1637-2582
# Assay type: cell-based
parameter: Ki (µM)
Give just the numeric value; µM need not be written.

**Q:** Return Ki for the following compound: CCCn1cc2c(nc(NC(=O)Nc3ccc(OC)cc3)n3nc(-c4ccco4)nc23)n1
**A:** 2.06

###

# assay.target: Adenosine receptor A3 (Homo sapiens, UniProt P0DMS8)
# Sequence (P0DMS8 whole entry): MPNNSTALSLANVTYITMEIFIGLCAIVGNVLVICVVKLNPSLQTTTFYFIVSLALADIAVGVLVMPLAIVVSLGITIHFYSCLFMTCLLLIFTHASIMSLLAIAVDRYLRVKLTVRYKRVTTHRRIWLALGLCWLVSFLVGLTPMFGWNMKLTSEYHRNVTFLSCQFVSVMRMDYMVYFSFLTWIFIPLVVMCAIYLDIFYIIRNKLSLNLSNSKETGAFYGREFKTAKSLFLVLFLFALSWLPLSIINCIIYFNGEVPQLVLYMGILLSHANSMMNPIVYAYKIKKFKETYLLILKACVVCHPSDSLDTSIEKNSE
# test.summary: Displacement of [3H]MRE3008-F20 from human adenosine A3 receptor expressed in CHO cells; range 2.13-3.62
# Assay type: cell-based
parameter: pKi
// field semantics: pKi = negative decimal log of concentration (mol/L)

**Q:** Indicate its recorded pKi; the compound in question is CC(C)(C)n1cc2c(nc(NC(=O)Nc3cccc(Cl)c3)n3nc(-c4ccco4)nc23)n1
**A:** 8.56

###

# assay.target: Adenosine receptor A2a (Homo sapiens, UniProt P29274)
# Sequence (P29274 whole entry): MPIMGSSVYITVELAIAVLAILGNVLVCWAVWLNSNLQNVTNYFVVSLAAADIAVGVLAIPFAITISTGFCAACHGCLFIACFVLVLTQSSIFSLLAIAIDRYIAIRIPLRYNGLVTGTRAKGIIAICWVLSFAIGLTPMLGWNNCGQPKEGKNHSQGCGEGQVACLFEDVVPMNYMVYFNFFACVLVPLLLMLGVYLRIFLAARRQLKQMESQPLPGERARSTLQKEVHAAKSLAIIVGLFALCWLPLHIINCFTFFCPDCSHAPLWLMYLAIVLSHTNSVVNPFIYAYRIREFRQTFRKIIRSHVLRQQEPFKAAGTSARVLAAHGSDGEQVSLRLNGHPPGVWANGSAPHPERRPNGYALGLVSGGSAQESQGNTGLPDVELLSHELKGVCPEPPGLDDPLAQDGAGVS
# test.summary: Displacement of [3H]-SCH- 58261 from human adenosine A2A receptor expressed in CHO cells; range 47-78
# Type: cell-based
parameter: pKi
pKi field: float, defined as -log10 of concentration (mol/L).

**Q:** State pKi (Adenosine receptor A2a (Homo sapiens, UniProt P29274)) of COc1ccc(NC(=O)Nc2nc3nn(CCC(C)C)cc3c3nc(-c4ccco4)nn23)cc1 .
**A:** 7.19

###

# assay.target: Adenosine receptor A2a (Homo sapiens, UniProt P29274)
# test.summary: Displacement of [3H]-SCH- 58261 from human adenosine A2A receptor expressed in CHO cells; range 160-210
# Format: cell-based
parameter: Ki (nM)
Number only, in nM; omit the unit.

**Q:** Indicate its recorded Ki; the compound in question is CCn1cc2c(nc(NC(=O)Nc3cccc(Cl)c3)n3nc(-c4ccco4)nc23)n1
**A:** 180

###

# assay.target: Adenosine receptors; A2b & A3 (Homo sapiens) (UniProt P29275+P0DMS8)
# test.summary: Ratio of binding affinity of human A2B receptor to that of human A3 receptor
# Format: protein assay
Examples of compounds with documented Ratio follow.

Cn1cc2c(nc(NC(=O)Nc3cccc(Cl)c3)n3nc(-c4ccco4)nc23)n1 :: 512

**Q:** Supply Ratio measured with Adenosine receptors; A2b & A3 (Homo sapiens) (UniProt P29275+P0DMS8) for Nc1nc2nn(CCc3cccc4ccccc34)cc2c2nc(-c3ccco3)nn12 .
**A:** 1.26

**Q:** Give the observed Ratio of Cn1cc2c(nc(N)n3nc(-c4ccco4)nc23)n1 for Adenosine receptors; A2b & A3 (Homo sapiens) (UniProt P29275+P0DMS8).
**A:** 0.3

**Q:** Param request: Ratio | system Adenosine receptors; A2b & A3 (Homo sapiens) (UniProt P29275+P0DMS8) | item CC(C)CCn1cc2c(nc(N)n3nc(-c4ccco4)nc23)n1
**A:** 0.013

**Q:** Using Adenosine receptors; A2b & A3 (Homo sapiens) (UniProt P29275+P0DMS8) as the test system, report measured Ratio of Nc1nc2nn(CCCc3ccccc3)cc2c2nc(-c3ccco3)nn12 .
**A:** 0.011

**Q:** Identify measured Ratio obtained with Adenosine receptors; A2b & A3 (Homo sapiens) (UniProt P29275+P0DMS8) for COc1ccc(NC(=O)Nc2nc3nn(C)cc3c3nc(-c4ccco4)nn23)cc1 .
**A:** 1300

**Q:** Give Adenosine receptors; A2b & A3 (Homo sapiens) (UniProt P29275+P0DMS8) Ratio for the following compound: O=C(Nc1cccc(Cl)c1)Nc1nc2nn(CCc3cccc4ccccc34)cc2c2nc(-c3ccco3)nn12
**A:** > 196

**Q:** Quote Adenosine receptors; A2b & A3 (Homo sapiens) (UniProt P29275+P0DMS8) Ratio for entry O=C(Nc1cccc(Cl)c1)Nc1nc2nn(CCc3cc(Br)c(Br)cc3Br)cc2c2nc(-c3ccco3)nn12 .
**A:** 26

**Q:** Report value only: Ratio, Adenosine receptors; A2b & A3 (Homo sapiens) (UniProt P29275+P0DMS8), COc1ccc(NC(=O)Nc2nc3nn(CCCc4ccccc4)cc3c3nc(-c4ccco4)nn23)cc1
**A:** 20

**Q:** With Adenosine receptors; A2b & A3 (Homo sapiens) (UniProt P29275+P0DMS8) as the test system, provide measured Ratio for this compound: CCCCn1cc2c(nc(N)n3nc(-c4ccco4)nc23)n1
**A:** 0.09

**Q:** State the measured Ratio (Adenosine receptors; A2b & A3 (Homo sapiens) (UniProt P29275+P0DMS8)) of CCCn1cc2c(nc(N)n3nc(-c4ccco4)nc23)n1
**A:** 0.095

**Q:** Report Ratio under test system Adenosine receptors; A2b & A3 (Homo sapiens) (UniProt P29275+P0DMS8) for COc1ccc(NC(=O)Nc2nc3nn(CCc4cc(Br)c(Br)cc4Br)cc3c3nc(-c4ccco4)nn23)cc1 .
**A:** > 400

**Q:** For Adenosine receptors; A2b & A3 (Homo sapiens) (UniProt P29275+P0DMS8), give the measured Ratio of the entry O=C(Nc1cccc(Cl)c1)Nc1nc2nn(CCCc3ccccc3)cc2c2nc(-c3ccco3)nn12
**A:** 3.7

**Q:** Under Adenosine receptors; A2b & A3 (Homo sapiens) (UniProt P29275+P0DMS8), report Ratio for CC(C)=CCn1cc2c(nc(NC(=O)Nc3cccc(Cl)c3)n3nc(-c4ccco4)nc23)n1
**A:** 1.47

**Q:** Report Ratio under test system Adenosine receptors; A2b & A3 (Homo sapiens) (UniProt P29275+P0DMS8) for COc1ccc(NC(=O)Nc2nc3n[nH]cc3c3nc(-c4ccco4)nn23)cc1 .
**A:** 2500

**Q:** Print Adenosine receptors; A2b & A3 (Homo sapiens) (UniProt P29275+P0DMS8) Ratio for O=C(Nc1cccc(Cl)c1)Nc1nc2ccc(Cl)cc2c2nc(-c3ccco3)nn12 .
**A:** 157

**Q:** # assay system Adenosine receptors; A2b & A3 (Homo sapiens) (UniProt P29275+P0DMS8): give Ratio of O=C(Nc1cccc(Cl)c1)Nc1nc2n[nH]cc2c2nc(-c3ccco3)nn12
**A:** 140

**Q:** Write down measured Ratio (Adenosine receptors; A2b & A3 (Homo sapiens) (UniProt P29275+P0DMS8)) for this compound. COc1ccc(NC(=O)Nc2nc3nn(CCc4ccccc4)cc3c3nc(-c4ccco4)nn23)cc1
**A:** 82.6

**Q:** Please tell me the measured Ratio for CC(C)(C)n1cc2c(nc(N)n3nc(-c4ccco4)nc23)n1 ; system: Adenosine receptors; A2b & A3 (Homo sapiens) (UniProt P29275+P0DMS8).
**A:** 0.35

**Q:** Give Ratio for this entry on Adenosine receptors; A2b & A3 (Homo sapiens) (UniProt P29275+P0DMS8): COc1ccc(NC(=O)Nc2nc3nn(CCC(C)C)cc3c3nc(-c4ccco4)nn23)cc1
**A:** 1.8
